Target: T1, cynomolgus IL-18BP (cynomolgus monkey)
T1 construct: Generated in-house; also called cyIL-18BP; cyno IL-18BP
T1 chain: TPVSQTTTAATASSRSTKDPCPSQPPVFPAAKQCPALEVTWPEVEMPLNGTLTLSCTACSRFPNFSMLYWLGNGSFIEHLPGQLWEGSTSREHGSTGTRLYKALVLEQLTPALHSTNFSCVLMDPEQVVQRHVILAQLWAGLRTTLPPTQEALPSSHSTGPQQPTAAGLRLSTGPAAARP
Test: ratio of BLI KDs, cyno against human IL-18BP
Assignment: determine reported Cyno/human for the given binders.
One number for each entry, in ratio.

| binder | Cyno/human, ratio |
| --- | --- |
| SA307a (antibody, human IgG1, V domains shown, humanized; human IgG1 (suffix a), kappa) VH: QVQLQESGPGLVKPSQTLSLTCTVSGYSITQDYNAHWIRQPPGKGLEWIGYIHYSGSTNYNPSLKSRVTISRDTSKNQFSLKLSSVTAADTAVYYCARNYGSIYVNYFDYWGQGTLVTVSS VL: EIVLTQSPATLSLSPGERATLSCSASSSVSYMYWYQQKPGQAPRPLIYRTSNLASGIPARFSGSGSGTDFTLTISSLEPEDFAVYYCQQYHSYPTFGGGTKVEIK | 0.5 |

Query: Fill in Cyno/human for record SA337a (antibody, human IgG1, V domains shown, humanized; human IgG1 (suffix a), kappa) VH: QVQLQESGPGLVKPSQTLSLTCTVSGYSITQDYNAHWIRQPPGKGLEWIGYIHYSGQTNYNPSLKSRVTISRDTSKNQFSLKLSSVTAADTAVYYCARNYGSIYVNYFDYWGQGTLVTVSS VL: EIVLTQSPATLSLSPGERATLSCSASSSVSYMYWYQQKPGQAPRPLIYRTSNLASGIPARFSGSGSGTDFTLTISSLEPEDFAVYYCQLYHSYPTFGGGTKVEIK
Result: 0.89
